biological target: T1, ABCB5 linear epitope peptide (3rd extracellular loop) (human); assay: linear peptide ELISA, BSA-conjugated peptides (20 µM), OD 450 nm (mAb-Iso (InVivoPlus+))
T1 construct: Synthetic linear peptide, used at 20 uM in the ELISA; 104; also called ABCB5 peptide; linear peptide
T1 peptide: RFGAYLIQAGRMTPEG

BINDER: ABCB5-Ab44 (antibody, V domains shown, also called A44; F01) VH: QVQLVQSGAEVKKPGASVKVSCKASGYTFTSYYMHWVRQAPGQGLEWMGIINPSGGSTSYAQKFKGRVTMTRDTSTSTVYMELSSLRSEDTAVYYCARDQAVTGTAYYYYYGMDVWGQGTTVTVSS VL: EIVLTQSPGTLSLSPGERATLSCRASQSVNSNYLAWYQQKPGQAPRLLIYGTSSRATGIPDSFSGSGSGTDFTLTISRLEPEDFAVYYCQQFGSSPLTFGGGTKVEIK
binding result: binds
//
BINDER: ABCB5-Ab45 (antibody, V domains shown) VH: QVQLVQSGAEVKKPGASVKVSCKASGYTFTNYYMHWVRQAPGQGPEWMGIINPSGGSTSYAQKFQGRVTMTRDTSTSTVYMELSSLRSEDTAVYYCARDLAVTGTAYYYYYGMDVWGQGTTVTVSS VL: EFVLTQSPGTLSLSPGERATLSCRASQSVNSNYLAWYQQKPGQAPRLLIYGTSSRATGIPDSFSGSGSGTDFTLTISRLEPEDFAVYYCQQFGSSPLTFGGGTKVEIK
binding result: binds
//
BINDER: ABCB5-Ab42 (antibody, V domains shown, detection was with an anti-human secondary antibody) VH: QVQLVQSGAEVKKPGASVKVSCKTSGYTFTSYYMHWVRQSPGQGLEWMGIINPSGGSTSYAQKFQGRVTMTRDTSTSTVYMELSSLRSEDTAVYYCARDQAVTGTAYYYYYGMDVWGQGTTVTVSS VL: EIVLTQSPGTLSLSPGERATLSCRASLSVNSNYLAWYQQKPGQAPRLLIYGTSSRATGIPDSFSGSGSGTDFTLTISRLEPEDFAVYYCQQFGSSPLTFGGGTKVEIK
binding result: binds
